- MEASUREMENT_TARGET: BACE-1 enzyme (Homo sapiens)
- Construct: purchased R & D Systems 931AS
- Sequence (P56817 46-457 limits assumed): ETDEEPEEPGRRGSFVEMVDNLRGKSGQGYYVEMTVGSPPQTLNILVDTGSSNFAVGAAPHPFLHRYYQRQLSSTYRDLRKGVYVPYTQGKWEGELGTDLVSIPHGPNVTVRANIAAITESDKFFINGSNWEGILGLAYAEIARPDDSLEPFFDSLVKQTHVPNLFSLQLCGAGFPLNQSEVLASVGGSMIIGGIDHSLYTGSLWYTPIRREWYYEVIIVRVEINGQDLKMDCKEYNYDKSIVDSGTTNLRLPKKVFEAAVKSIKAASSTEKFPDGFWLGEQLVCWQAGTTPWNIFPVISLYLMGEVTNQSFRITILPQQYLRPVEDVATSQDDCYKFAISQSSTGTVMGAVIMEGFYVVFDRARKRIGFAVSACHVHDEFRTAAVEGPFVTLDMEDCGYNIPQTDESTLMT
- ASSAY_DETAILS: BACE Fluorescence Resonance Energy Transfer (FRET) Assay
- Format: biochemical
- CONDITION_PARAMETERS: pH 4-4.5, 30 min pre-incubation, about 1.5 hours reaction, asterisk = mean
Known log10(IC50) of a selection of molecules
All values: log10 IC50 [µM].

Example results:
MOLECULE: C[C@H](O)[C@@H](C)Oc1ccc2nc(C(=O)Nc3nc4cc(-c5cccc(C(F)(F)F)c5)ccc4[nH]3)cn2n1
MEASUREMENT_TARGET: BACE-1 enzyme (Homo sapiens)
REPORTED_PROPERTY: log10(IC50)
RECORDED_NUMBER: -0.72
--
MOLECULE: CCCC[C@H](O)COc1ccc2nc(C(=O)Nc3nc4cc(-c5cc(F)cc(Cl)c5)ccc4[nH]3)cn2n1
MEASUREMENT_TARGET: BACE-1 enzyme (Homo sapiens)
REPORTED_PROPERTY: log10(IC50)
RECORDED_NUMBER: -0.79
--
MOLECULE: O=C(Nc1nc2cc(-c3cccc(C(F)(F)F)c3)ccc2[nH]1)c1cn2nc(OCCN3CCOCC3)ccc2n1
MEASUREMENT_TARGET: BACE-1 enzyme (Homo sapiens)
REPORTED_PROPERTY: log10(IC50)
RECORDED_NUMBER: -0.58
--
MOLECULE: CO[C@@H]1CCN(c2ccc3nc(C(=O)Nc4nc5cc(-c6ccc(C)s6)ccc5[nH]4)cn3n2)C1
MEASUREMENT_TARGET: BACE-1 enzyme (Homo sapiens)
REPORTED_PROPERTY: log10(IC50)
RECORDED_NUMBER: 0.14
--
MOLECULE: O=C(Nc1nc2cc(-c3cccc(OC(F)(F)F)c3)ccc2[nH]1)c1cn2nc(OCCN3CCCCC3)ccc2n1
MEASUREMENT_TARGET: BACE-1 enzyme (Homo sapiens)
REPORTED_PROPERTY: log10(IC50)
RECORDED_NUMBER: -0.62
--
MOLECULE: C[C@@H](CO)Oc1ccc2nc(C(=O)Nc3nc4cc(-c5cccc(OC(F)(F)F)c5)ccc4[nH]3)cn2n1
MEASUREMENT_TARGET: BACE-1 enzyme (Homo sapiens)
REPORTED_PROPERTY: log10(IC50)
RECORDED_NUMBER: -0.48
--
MOLECULE: CCC[C@@H](O)COc1ccc2nc(C(=O)Nc3nc4cc(-c5cc(F)cc(Cl)c5)ccc4[nH]3)cn2n1
MEASUREMENT_TARGET: BACE-1 enzyme (Homo sapiens)
REPORTED_PROPERTY: log10(IC50)
RECORDED_NUMBER: -0.38
--
MOLECULE: O=C(Nc1nc2cc(-c3cc(F)cc(Cl)c3)ccc2[nH]1)c1cn2nc(OC3COC4C(O)COC34)ccc2n1 (centres unmarked)
MEASUREMENT_TARGET: BACE-1 enzyme (Homo sapiens)
REPORTED_PROPERTY: log10(IC50)
RECORDED_NUMBER: -0.58
--
MOLECULE: O=C(Nc1nc2cc(-c3cccc(OC(F)(F)F)c3)ccc2[nH]1)c1cn2nc(OCCN3CCCC3=O)ccc2n1
MEASUREMENT_TARGET: BACE-1 enzyme (Homo sapiens)
REPORTED_PROPERTY: log10(IC50)
RECORDED_NUMBER: -0.50
--
MOLECULE: O=C(Nc1nc2cc(-c3cccc(C(F)(F)F)c3)ccc2[nH]1)c1cn2nc(OCCN3CCCC3)ccc2n1
MEASUREMENT_TARGET: BACE-1 enzyme (Homo sapiens)
REPORTED_PROPERTY: log10(IC50)
RECORDED_NUMBER: -0.49

Ask | Please report the recorded log10(IC50) for CC[C@H](O)COc1ccc2nc(C(=O)Nc3nc4cc(-c5cc(F)cc(Cl)c5)ccc4[nH]3)cn2n1 .
Reply | -0.86

Ask | Follow-up item: O=C(Nc1nc2cc(-c3cccc(OC(F)(F)F)c3)ccc2[nH]1)c1cn2nc(OCCN3CCCCCC3)ccc2n1
Reply | -0.57

Ask | Follow-up item: O=C(Nc1nc2cc(-c3cccc(C(F)(F)F)c3)ccc2[nH]1)c1cn2nc(N[C@H]3CCNC3)ccc2n1
Reply | -0.47

Ask | Follow-up item: O=C(Nc1nc2cc(-c3cc(F)cc(Cl)c3)ccc2[nH]1)c1cn2nc(N3CCC(O)CC3)ccc2n1
Reply | -0.87

Ask | Follow-up item: COc1ccc2nc(C(=O)Nc3nc4cc(OCc5ccc(C(F)(F)F)cc5)ccc4[nH]3)cn2n1
Reply | -1.02

Ask | Follow-up item: O=C(Nc1nc2cc(-c3cccc(C(F)(F)F)c3)ccc2[nH]1)c1cn2nc(OCCN3CCCCC3)ccc2n1
Reply | -0.61

Ask | Follow-up item: C[C@@H](O)[C@@H](C)Oc1ccc2nc(C(=O)Nc3nc4cc(-c5cc(F)cc(Cl)c5)ccc4[nH]3)cn2n1
Reply | -0.42

Ask | Follow-up item: CO[C@H]1CCN(c2ccc3nc(C(=O)Nc4nc5cc(-c6ccc(C)s6)ccc5[nH]4)cn3n2)C1
Reply | 0.37

Ask | Follow-up item: CN(C)CCCOc1ccc2nc(C(=O)Nc3nc4cc(-c5cc(F)cc(Cl)c5)ccc4[nH]3)cn2n1
Reply | -0.77

Ask | Follow-up item: COc1ccc2nc(C(=O)Nc3nc4cc(-c5cc(F)cc(Cl)c5)ccc4[nH]3)cn2n1
Reply | -0.65

Ask | Follow-up item: CC1(C)CCC(c2ccc3[nH]c(NC(=O)c4cn5nc(N6CCC(O)CC6)ccc5n4)nc3c2)CC1
Reply | -0.74

Ask | Follow-up item: CN(C)CCN(C)CCOc1ccc2nc(C(=O)Nc3nc4cc(-c5cc(F)cc(Cl)c5)ccc4[nH]3)cn2n1
Reply | -0.68

Ask | Follow-up item: O=C(Nc1nc2cc(C3CCCC3)ccc2[nH]1)c1cn2nc(N3CC[C@@H](O)C3)ccc2n1
Reply | -0.37

* * *

- MEASUREMENT_TARGET: BACE-1 enzyme (Homo sapiens)
- Construct: purchased R & D Systems 931AS
- ASSAY_DETAILS: BACE Fluorescence Resonance Energy Transfer (FRET) Assay
- Format: biochemical
- CONDITION_PARAMETERS: pH 4-4.5, 30 min pre-incubation, about 1.5 hours reaction, asterisk = mean
REPORTED_PROPERTY: IC50 (µM)
Note: unit µM is implicit; provide only the numeric part.

COMPOUND: O=C(Nc1nc2cc(-c3cc(F)cc(Cl)c3)ccc2[nH]1)c1cn2nc(OCCN3CCCC3=O)ccc2n1 [Example 54]
REPORTED_PROPERTY: IC50
QUANTITY_UNIT: µM
RECORDED_NUMBER: 0.211
//
COMPOUND: CCN(CC)CCCOc1ccc2nc(C(=O)Nc3nc4cc(-c5cc(F)cc(Cl)c5)ccc4[nH]3)cn2n1 [Example 20]
REPORTED_PROPERTY: IC50
QUANTITY_UNIT: µM
RECORDED_NUMBER: 0.205
//
COMPOUND: CC1(COc2ccc3nc(C(=O)Nc4nc5cc(-c6cc(F)cc(Cl)c6)ccc5[nH]4)cn3n2)COC1 [Example 98]
REPORTED_PROPERTY: IC50
QUANTITY_UNIT: µM
RECORDED_NUMBER: 0.248

Ask | Give BACE-1 enzyme (Homo sapiens) IC50 for CC(C)(C)NCCOc1ccc2nc(C(=O)Nc3nc4cc(-c5cc(F)cc(Cl)c5)ccc4[nH]3)cn2n1 [Example 52]
Reply | 0.223

Ask | Follow-up item: CN1CC[C@H](Oc2ccc3nc(C(=O)Nc4nc5cc(-c6cc(F)cc(Cl)c6)ccc5[nH]4)cn3n2)C1 [Example 69]
Reply | 0.3

Ask | Follow-up item: O=C(Nc1nc2cc(-c3cc(F)cc(Cl)c3)ccc2[nH]1)c1cn2nc(OC[C@@H]3CCCO3)ccc2n1 [Example 147]
Reply | 0.207

Ask | Follow-up item: O=C(Nc1nc2cc(-c3cccc(OC(F)(F)F)c3)ccc2[nH]1)c1cn2nc(OCCN3CCCC3)ccc2n1 [Example 21]
Reply | 0.318

* * *

- MEASUREMENT_TARGET: BACE-1 enzyme (Homo sapiens)
- Construct: purchased R & D Systems 931AS
- ASSAY_DETAILS: BACE Fluorescence Resonance Energy Transfer (FRET) Assay
- Assay type: biochemical
- CONDITION_PARAMETERS: pH 4-4.5, 30 min pre-incubation, about 1.5 hours reaction, asterisk = mean
Binary call on IC50 with cut-off 0.3 µM: strictly below means label 1, and equality or higher means label 0.

SMILES_NOTATION: CC(C)(O)COc1ccc2nc(C(=O)Nc3nc4cc(-c5cccc(OC(F)(F)F)c5)ccc4[nH]3)cn2n1
MEASUREMENT_TARGET: BACE-1 enzyme (Homo sapiens)
ASSIGNED_CLASS: label 1
//
SMILES_NOTATION: O=C(Nc1nc2cc(-c3cc(F)cc(Cl)c3)ccc2[nH]1)c1cn2nc(OCCN3CCCC3)ccc2n1
MEASUREMENT_TARGET: BACE-1 enzyme (Homo sapiens)
ASSIGNED_CLASS: label 1
//
SMILES_NOTATION: O=C(Nc1nc2cc(-c3cccc(OC(F)(F)F)c3)ccc2[nH]1)c1cn2nc(OC[C@H]3CC[C@@H](CO)O3)ccc2n1
MEASUREMENT_TARGET: BACE-1 enzyme (Homo sapiens)
ASSIGNED_CLASS: label 1
//
SMILES_NOTATION: O=C(Nc1nc2cc(-c3cccc(OC(F)(F)F)c3)ccc2[nH]1)c1cn2nc(OCCn3cncn3)ccc2n1
MEASUREMENT_TARGET: BACE-1 enzyme (Homo sapiens)
ASSIGNED_CLASS: label 0
//
SMILES_NOTATION: CC(C)NCCOc1ccc2nc(C(=O)Nc3nc4cc(-c5cccc(OC(F)(F)F)c5)ccc4[nH]3)cn2n1
MEASUREMENT_TARGET: BACE-1 enzyme (Homo sapiens)
ASSIGNED_CLASS: label 1

Ask | Please let me know if CC(C)NCCOc1ccc2nc(C(=O)Nc3nc4cc(-c5cccc(C(F)(F)F)c5)ccc4[nH]3)cn2n1 shows IC50 below 0.3 µM.
Reply | label 1

Ask | Follow-up item: CCOCCCOc1ccc2nc(C(=O)Nc3nc4cc(-c5cccc(C(F)(F)F)c5)ccc4[nH]3)cn2n1
Reply | label 0
